Every entry's value here was drawn from paper doi:10.1101/2021.04.29.441652v1.

target: human σ2 receptor (TMEM97) (Homo sapiens); assay: biochemical; format: Expi293 membranes; settings: read-out: % of control remaining
Sequence (Q5BJF2 whole entry): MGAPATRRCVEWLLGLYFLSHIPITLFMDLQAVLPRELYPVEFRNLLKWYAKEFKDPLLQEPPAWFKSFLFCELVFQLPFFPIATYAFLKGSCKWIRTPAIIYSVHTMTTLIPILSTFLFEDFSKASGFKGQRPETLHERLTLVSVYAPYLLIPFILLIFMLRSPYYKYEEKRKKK
We label by threshold. Values of remaining activity at 1 µM strictly beneath 80% are Y. Values of 80% and up are N.

Here are 10 compounds together with their reported answers.
Compound | Measurement target | Assigned label
CN1CC[C@](O)(CNC(=O)c2ccc([N+](=O)[O-])c3cccnc23)C1 [ZINC000358062278] | human σ2 receptor (TMEM97) (Homo sapiens) | N
COC[C@@H](O)CN1CC[C@H](NC(=O)c2c(C)c(C)nn(C)c2=O)C1 [ZINC001365986475] | human σ2 receptor (TMEM97) (Homo sapiens) | N
CN(C)S(=O)(=O)N(C)CC(=O)N[C@@H]1C[C@H](NCCO)C12CCC2 [ZINC001202928172] | human σ2 receptor (TMEM97) (Homo sapiens) | N
CCN(C[C@@H]1CCN(Cc2ccccc2)C1)C(=O)[C@H]1CC(=O)N(C2CCCC2)C1 [ZINC000246894550] | human σ2 receptor (TMEM97) (Homo sapiens) | Y
CN(C[C@@H](O)CN(C)c1ncc(F)cn1)C(=O)CCc1cnn[nH]1 [ZINC001125309519] | human σ2 receptor (TMEM97) (Homo sapiens) | N
CS[C@H](CO)[C@@H](C)NC(=O)N[C@@H]1CCN(C2CCN(C)CC2)C1 [ZINC000377772869] | human σ2 receptor (TMEM97) (Homo sapiens) | N
CN(C[C@@H](O)CCc1ccccc1)[C@H]1CCN(c2ccccc2F)C1=O [ZINC000248559983] | human σ2 receptor (TMEM97) (Homo sapiens) | N
Cc1ccc([C@H]2CCN(CC3(O)CCC3)C2)c(C)c1 [ZINC000348332392] | human σ2 receptor (TMEM97) (Homo sapiens) | Y
Fc1ccccc1[C@H]1CCN(CC#Cc2cccc(Cl)c2)C1 [ZINC001170548029] | human σ2 receptor (TMEM97) (Homo sapiens) | Y
CCc1ccc(F)cc1C(=O)N1CCCN(CCOC(C)C)CC1 [ZINC001196417557] | human σ2 receptor (TMEM97) (Homo sapiens) | Y

stdin: Report whether reported remaining activity at 1 µM is lower than 80% (strictly) for COC1CCC(N(C)CC(=O)Nc2ccc3ccccc3c2)CC1 (stereo not shown) [ZINC000265181994]
stdout: N
